TGI values by entry
system: A549 NSCLC; test: NCI tumour cell line growth inhibition, 48 h

[
  {
    "compound": "O=c1ccc(=O)c2c(=O)c3ccccc3c(=O)c1=2",
    "TGI": "> 100 µM"
  },
  {
    "compound": "COc1cc(/C=C2\\CCC(C)C3=C2NC(=S)NC3c2cc(OC)c(OC)c(OC)c2)cc(OC)c1OC (configuration not stated)",
    "TGI": "> 100 µM"
  },
  {
    "compound": "Cc1ccc(C(=O)/C(C#N)=C/Nc2c(C)n(C)n(-c3ccccc3)c2=O)cc1",
    "TGI": "> 100 µM"
  },
  {
    "compound": "C=CC[C@@]1(C(=O)OC)[C@H](Sc2ccccc2)C1(C)C",
    "TGI": "> 100 µM"
  },
  {
    "compound": "Cn1cc(CNCC2CCN(c3ncc(C(=O)NO)cn3)CC2)c2ccccc21",
    "TGI": "0.519 µM"
  },
  {
    "compound": "Cc1cc(N/N=C/c2nc(-c3ccc(Cl)cc3)oc2C)c2cc(Cl)ccc2n1",
    "TGI": "3.6 µM"
  },
  {
    "compound": "COc1ccc(C2C(C#N)=C(S)N(C3OC(CO)C(O)C(O)C3O)C(c3ccccc3)=C2C(C)=O)cc1 (configuration not stated)",
    "TGI": "> 100 µM"
  }
]

###

tested on: UACC-62 melanoma; assay: NCI tumour cell line growth inhibition, 48 h
measuredEndpoint: TGI

[
  {
    "compound": "CCOC(=O)c1cc(/C=C/C(C)=C/C(=O)OC)n(C)c1C",
    "result": "> 100 µM"
  },
  {
    "compound": "Cc1ccc(N=Nc2c(C)c(C#N)c(=S)n(C3OC(CO)C(O)C(O)C3O)c2-c2ccccc2)cc1 (stereo not drawn)",
    "result": "32 µM"
  },
  {
    "compound": "COC(=O)c1c(-c2ccccc2)sc(-c2cccc3ccccc23)c1C(=O)OC",
    "result": "> 100 µM"
  },
  {
    "compound": "CCOc1cc(C2CC(c3ccc(NS(=O)(=O)c4cc([N+](=O)[O-])ccc4C)cc3)=NN2)ccc1O (stereo not drawn)",
    "result": "30.3 µM"
  },
  {
    "compound": "CC(C)N(C)C(=O)C12C3C4C1C1C2C3C41C#N (stereo not drawn)",
    "result": "> 100 µM"
  },
  {
    "compound": "O=c1[nH]nc(Cc2ccccc2)n1-n1cnnc1",
    "result": "> 100 µM"
  },
  {
    "compound": "CN1C(=O)C(Cl)(C(Cl)(Cl)S(=O)(=O)O)C(=O)c2ccccc21 (stereo not drawn)",
    "result": "> 100 µM"
  },
  {
    "compound": "O=C1Nc2cccc3cc(NCC(O)CCl)cc1c23 (stereo not drawn)",
    "result": "> 100 µM"
  },
  {
    "compound": "CCOC(=O)C(=O)Nc1c(C(C)C)cccc1C(C)C",
    "result": "> 100 µM"
  },
  {
    "compound": "COc1ccc(OC)c2c1C1CCC(=O)N1CN2C(C)=O (stereo not drawn)",
    "result": "> 100 µM"
  },
  {
    "compound": "c1ccc2c(c1)nc1n2CCSC1",
    "result": "> 100 µM"
  },
  {
    "compound": "COc1cc(/C=C2\\CCC(C)C3=C2NC(=S)NC3c2cc(OC)c(OC)c(OC)c2)cc(OC)c1OC (stereo not drawn)",
    "result": "> 100 µM"
  },
  {
    "compound": "CN(C)CCNc1ncnc2nc(-c3ccc4ccccc4c3)[nH]c12",
    "result": "> 100 µM"
  },
  {
    "compound": "COc1cc(/C=C2/N=C(c3ccccc3)N(C3=NNC4(C(=O)N3)c3ccccc3-c3ccccc34)NC2=O)ccc1O",
    "result": "48.3 µg/mL"
  },
  {
    "compound": "Cc1nc(C(N)=S)sc1C(=O)C/C(=N/N)C(=O)Nc1cccc(Cl)c1C",
    "result": "> 100 µM"
  },
  {
    "compound": "OC12CC/C(=N/OCc3ccccc3)CC1c1ccccc12 (stereo not drawn)",
    "result": "> 100 µM"
  },
  {
    "compound": "O=C(NCc1ccc(Cl)cc1)c1cc2sccc2nc1C(F)(F)F",
    "result": "> 100 µM"
  },
  {
    "compound": "CCO/C(O)=C(/C(=N)N1CCCC1)C(=O)Nc1cccc(C(F)(F)F)c1",
    "result": "> 100 µM"
  },
  {
    "compound": "C=C1C(=O)OC2/C=C(\\C=O)CC/C=C(\\C)C(O)C[C@@H]12 (stereo partly drawn)",
    "result": "18.5 µM"
  },
  {
    "compound": "COc1cc(Cn2c(-c3nonc3N)nc3ccccc32)ccc1C",
    "result": "> 100 µM"
  },
  {
    "compound": "CC(C)[C@H]1C(=O)N[C@@H](CCCN=C(N)N)C(=O)NCC(=O)N[C@@H](CC(=O)O)C(=O)N[C@H](Cc2ccccc2)C(=O)N1C",
    "result": "> 100 µM"
  },
  {
    "compound": "O=C1CCC(O)=C1O",
    "result": "> 100 µM"
  },
  {
    "compound": "C/C(O)=C/c1nc2ccc([N+](=O)[O-])cc2nc1/C=C(/C)O",
    "result": "> 100 µM"
  },
  {
    "compound": "COc1ccc2c(c1)[n+]([O-])c(/C(C)=N/NC(=O)CC#N)c[n+]2[O-]",
    "result": "> 100 µM"
  },
  {
    "compound": "NC(=O)c1ccc(C2C3=C(CCCC3=O)OC3=C2C(=O)c2ccccc2C3=O)cc1 (stereo not drawn)",
    "result": "0.52 µM"
  },
  {
    "compound": "C[N+]1(C)C/C(=C\\c2ccncc2)C(=O)/C(=C/c2ccncc2)C1",
    "result": "> 100 µM"
  },
  {
    "compound": "CC(=O)N1CCN(C23OC4(N5CCN(C(C)=O)CC5)C5C6CC(C7C6C4C72)C53)CC1 (stereo not drawn)",
    "result": "> 100 µM"
  },
  {
    "compound": "CCOC(=O)C(/C=N\\C(=S)Nc1ccc(OCC)cc1)=C(/O)c1ccccc1",
    "result": "> 100 µM"
  },
  {
    "compound": "Cc1c(Cl)cccc1NC(=O)CC1C(=O)Nc2ccccc2S1(=O)=O (stereo not drawn)",
    "result": "31.7 µM"
  },
  {
    "compound": "FCc1ncc(-c2ccc(C(F)(F)F)cc2)c(NC2CCCCCC2)n1",
    "result": "> 10 µM"
  },
  {
    "compound": "Cc1cc(-c2nnc3n2CCCCC3)c(C)n1-c1ccc(Cl)c(Cl)c1",
    "result": "17 µM"
  },
  {
    "compound": "CC(=O)OC1[C@H]2c3cc4c(cc3CN3CCC(=C[C@@H]1O)C23)OCO4 (stereo partly drawn)",
    "result": "> 100 µM"
  },
  {
    "compound": "COC1CC(OC(=O)c2ccccc2)C(OC(=O)c2ccccc2)C(C)O1 (stereo not drawn)",
    "result": "> 100 µM"
  },
  {
    "compound": "C=C(C=O)CCCC(C)[C@@H]1CCC23CC12CCC1[C@@]2(C)CCC(OC(C)=O)C(C)(C)C2CC(OC2OC(COC(C)=O)C(O)C(O)C2O)[C@]13C (stereo partly drawn)",
    "result": "3.49 µM"
  },
  {
    "compound": "Cc1ccc(SC(=O)N2C(=S)NC(=NC3CCCCC3)C23CCCCC3)cc1",
    "result": "> 100 µM"
  },
  {
    "compound": "O=S1(=O)c2ccccc2NC(=S)CC1c1ccccc1 (stereo not drawn)",
    "result": "> 100 µM"
  },
  {
    "compound": "CSc1ccc(/C=C2\\C=C(CC(=O)NCc3ccc(C(=O)c4ccccc4)cc3)c3cc(F)ccc32)cc1",
    "result": "10.7 µM"
  },
  {
    "compound": "COc1cc(C2SCC(=O)N2c2ccc(Oc3ccc(Cl)cc3)c(Cl)c2)cc(OC)c1OC (stereo not drawn)",
    "result": "30.9 µM"
  }
]

###

test system: DU-145 prostate; assay: NCI tumour cell line growth inhibition, 48 h

[
  {
    "compound": "COC(=O)C1(Cc2ccccc2)Cc2ccccc2C1",
    "testedOn": "DU-145 prostate",
    "TGI": "> 100 µM"
  },
  {
    "compound": "Cn1c(=O)c2c(ncn2CN2CCN(Cn3cnc4c3c(=O)n(C)c(=O)n4C)CC2)n(C)c1=O",
    "testedOn": "DU-145 prostate",
    "TGI": "> 100 µM"
  },
  {
    "compound": "Cn1nc(S(N)(=O)=O)s/c1=N/C(N)=S",
    "testedOn": "DU-145 prostate",
    "TGI": "> 100 µM"
  },
  {
    "compound": "CC(C)OP(=O)(OC(C)C)C(C(C)C)N(C)/C(F)=N/C(F)(F)F (stereo not drawn)",
    "testedOn": "DU-145 prostate",
    "TGI": "> 100 µM"
  },
  {
    "compound": "CSc1ccc(/C=C2\\C=C(CC(=O)NCc3ccc(C(=O)c4ccccc4)cc3)c3cc(F)ccc32)cc1",
    "testedOn": "DU-145 prostate",
    "TGI": "0.877 µM"
  },
  {
    "compound": "Cc1c2c(OCCCCN3CCN(c4ncccn4)CC3)nn(C)c(=O)c2c(C)n1-c1ccccc1",
    "testedOn": "DU-145 prostate",
    "TGI": "35.8 µM"
  },
  {
    "compound": "COc1cc(/C=C2\\CCC(C)C3=C2NC(=S)NC3c2cc(OC)c(OC)c(OC)c2)cc(OC)c1OC (stereo not drawn)",
    "testedOn": "DU-145 prostate",
    "TGI": "> 100 µM"
  },
  {
    "compound": "CC(=O)c1cc2ccccc2n(O)c1=N",
    "testedOn": "DU-145 prostate",
    "TGI": "> 100 µM"
  },
  {
    "compound": "COc1cc(S(=O)(=O)Nc2ccc(C3=NNC(c4ccccc4)C3)cc2)ccc1F (stereo not drawn)",
    "testedOn": "DU-145 prostate",
    "TGI": "> 100 µM"
  },
  {
    "compound": "O=Cc1ccc(-c2cccs2)s1",
    "testedOn": "DU-145 prostate",
    "TGI": "> 100 µM"
  },
  {
    "compound": "Cn1cc(CNCC2CCN(c3ncc(C(=O)NO)cn3)CC2)c2ccccc21",
    "testedOn": "DU-145 prostate",
    "TGI": "4.41 µM"
  },
  {
    "compound": "Cc1cc(=O)oc2cc(O)c(CN(C)CC(=O)O)cc12",
    "testedOn": "DU-145 prostate",
    "TGI": "> 100 µM"
  },
  {
    "compound": "CC1CCN(CC(=O)N2c3ccccc3Sc3cc4ccccc4cc32)CC1",
    "testedOn": "DU-145 prostate",
    "TGI": "> 100 µM"
  },
  {
    "compound": "CCN(CCNc1ccc(C)c2sc3ccccc3c(=O)c12)CC(C)(C)O",
    "testedOn": "DU-145 prostate",
    "TGI": "38.2 µM"
  },
  {
    "compound": "C=CC[C@@]1(C(=O)OC)[C@H](Sc2ccccc2)C1(C)C",
    "testedOn": "DU-145 prostate",
    "TGI": "> 100 µM"
  },
  {
    "compound": "COC(=O)C1=C(C(=O)OC)SC(=C(Cl)C(=S)Sc2ccccc2N)S1",
    "testedOn": "DU-145 prostate",
    "TGI": "43.7 µM"
  },
  {
    "compound": "COc1ccc(/C=C2\\N=C(c3ccccc3)N(C3Nc4cc5c(cc4S3)NC(N3C(=O)/C(=C/c4ccc(OC)cc4)N=C3c3ccccc3)S5)C2=O)cc1 (stereo not drawn)",
    "testedOn": "DU-145 prostate",
    "TGI": "> 100 µM"
  },
  {
    "compound": "O=C1CCCN1CC#CCN1CCCC1",
    "testedOn": "DU-145 prostate",
    "TGI": "> 100 µM"
  },
  {
    "compound": "CC1(COS(=O)(=O)OCC2(C)COS(=O)(=O)OC2)COS(=O)(=O)OC1",
    "testedOn": "DU-145 prostate",
    "TGI": "> 88.6 µM"
  },
  {
    "compound": "COc1c(C)c(OC)c2c(c1O)[C@@H]1[C@@H]3Cc4c(OC)c(C)c(OC)c(O)c4[C@H](CNC(=O)c4cnc5ccccc5n4)N3[C@@H](C#N)[C@H](C2)N1C",
    "testedOn": "DU-145 prostate",
    "TGI": "> 0.0206 µM"
  },
  {
    "compound": "Oc1ccc(CCc2cc(O)cc(O)c2)cc1",
    "testedOn": "DU-145 prostate",
    "TGI": "> 100 µM"
  },
  {
    "compound": "O=C1NC2(CN3CCC2CC3)C(=O)N1CN(Cc1ccccc1)c1ccccc1 (stereo not drawn)",
    "testedOn": "DU-145 prostate",
    "TGI": "> 100 µM"
  },
  {
    "compound": "CC(=O)N1CCN(C23OC4(N5CCN(C(C)=O)CC5)C5C6CC(C7C6C4C72)C53)CC1 (stereo not drawn)",
    "testedOn": "DU-145 prostate",
    "TGI": "> 100 µM"
  }
]
